Assay: qHTS for Inhibitors of human tyrosyl-DNA phosphodiesterase 1 (TDP1): qHTS in cells in presence of CPT; note: nearly all actives have a fitted effect of over 55% in size; note: potency is the fitted concentration of half-maximal effect
Details: chicken DT40 Tdp1-/-;hTDP1 cells + 20 nM CPT, ATP luminescence, 48 h; series mostly up to 46.2 µM
Hit rate of the full screen: of about 420,000 compounds, about 50,000 (12%) were called active. About 26% were inconclusive and are not listed. The sample as a whole holds a higher share of actives than the screen did.
reportedEndpoint: Potency

> print(dat)
                                    compound  reportedendpoint        testresult
 1         O=C(O)Cc1sc(-c2ccccc2)nc1-c1cccs1           Potency          inactive
 2  O=C(c1ccco1)n1nc(-c2ccc(Cl)cc2)nc1NCc1ccccc1           Potency  18.4 µM (active)
 3  COc1ccc2c(c1)C(C)=CC(C)(C)N2C(=O)CNCc1ccc2c(c1)OCO2           Potency  20.6 µM (active)
 4  O=C(Nc1nnc(-c2ccccc2)o1)c1cccc(S(=O)(=O)N2CCOCC2)c1           Potency    13 µM (active)
 5    O=C(Nc1ccccc1C(=O)N1CCCCCC1)c1ccccc1Cl           Potency          inactive
 6  COCCN(CC(=O)Nc1ccccc1C)S(=O)(=O)c1ccc(S(=O)(=O)N2CCCC2)cc1           Potency          inactive
 7  CC1CCCN(S(=O)(=O)c2ccc(C(=O)Nc3nnc(-c4ccncc4)o3)cc2)C1 (configuration not stated)           Potency  11.6 µM (active)
 8        Cc1cccc(C(=O)Nc2ccc(CC(=O)O)cc2)c1           Potency          inactive
 9  CC1CCCCN1S(=O)(=O)c1ccc(S(=O)(=O)N(CC(=O)Nc2ccccc2)Cc2cccs2)cc1 (configuration not stated)           Potency  25.9 µM (active)
10  COc1ccc(/C=C(\NC(=O)c2ccccc2)C(=O)NCCN2CCOCC2)cc1OC           Potency          inactive
11     CN(C(=O)COc1ccccc1)c1nnc(-c2ccncc2)s1           Potency          inactive
12       CCOC(=O)c1cnc(COc2ccccc2Cl)[nH]c1=O           Potency          inactive
